Cited source: the RNAGym collection of RNA variant scans (doi:10.7554/elife.90254)

B1: LINE1-full (parent)
chain: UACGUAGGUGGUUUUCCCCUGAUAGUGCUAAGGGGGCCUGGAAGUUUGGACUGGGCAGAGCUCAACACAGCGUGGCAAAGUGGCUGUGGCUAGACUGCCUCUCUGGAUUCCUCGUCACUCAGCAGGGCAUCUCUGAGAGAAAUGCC

- Variants of: B1
- Experiment summary: self-cleavage, relative activity (ratio to wild type); higher = more cleavage; in vitro, sequencing; the parent is a self-cleaving ribozyme
Reported property: self-cleavage
Answers are plain numbers.

A64G U73C : 0.17
U73C U130A : 1.2
G58A U115C : 0.06
A50G A64U : 0.39
U9C A65G : 0.16

Provide self-cleavage for all items below, preserving their order.
1. C56U U96A
2. U20C U29C
3. A30G G53A
4. A69G A77G

1. 0.03
2. 1.27
3. 0.94
4. 0.6

Provide self-cleavage for all items below, preserving their order.
1. A31U A57U
2. G25U A65G
3. U119A U132C
4. U13C U14C
5. C68U U143C

0.24
0.01
1.96
1.13
0.22

Provide self-cleavage for all items below, preserving their order.
1. A59U A79G
2. G72A

1: 0.83; 2: 1.3
